# Tested on: proteases secreted by P. aeruginosa ATCC 27853
# experimental.protocol: in vitro
# condition.set: Pseudomonas aeruginosa, P. aeruginosa ATCC 27853 culture supernatant, pH 8
Where a SMILES comes first, the peptide text is derived from it. [ ]: non-standard residue; d: D form. hArg = N=C(N)NCCCC[C@H](N)C(=O)O; 2Thi = N[C@@H](Cc1cccs1)C(=O)O; Dab = NCC[C@H](N)C(=O)O; Dap = NC[C@H](N)C(=O)O
quantity.kind: remaining at 24 h, 0.5 mg/mL (%)
Answer with a number only, understood to be in %.

**Query** Query: remaining at 24 h, 0.5 mg/mL; subject: CC(C)C[C@H](NC(=O)[C@H](Cc1ccc(O)cc1)NC(=O)[C@H](CCN)NC(=O)[C@H](CC(C)C)NC(=O)[C@H](CC(C)C)NC(=O)[C@H](CN)NC(=O)[C@H](CN)NC(=O)[C@H](Cc1ccccc1)NC(=O)[C@H](CC(C)C)NC(=O)[C@H](CCCCNC(=N)N)NC(=O)[C@@H](N)CN)C(=O)N[C@@H](CCCCNC(=N)N)C(=O)N[C@@H](CCN)C(=O)N[C@@H](Cc1cccs1)C(N)=O [UP11] (H-[Dap][hArg]LF[Dap][Dap]LL[Dab]YL[hArg][Dab][2Thi]-NH2)
**Result** 22.4

**Query** Query: remaining at 24 h, 0.5 mg/mL; subject: CC(C)C[C@H](NC(=O)[C@H](CC(C)C)NC(=O)[C@@H](CCCCN)NC(=O)[C@@H](CCCCN)NC(=O)[C@H](Cc1ccccc1)NC(=O)[C@H](CC(C)C)NC(=O)[C@@H](CCCNC(=N)N)NC(=O)[C@H](N)CCCCN)C(=O)N[C@H](CCCCN)C(=O)N[C@@H](Cc1ccc(O)cc1)C(=O)N[C@@H](CC(C)C)C(=O)N[C@H](CCCNC(=N)N)C(=O)N[C@H](CCCCN)C(=O)N[C@@H](Cc1ccccc1)C(N)=O [DP06] (H-[dK][dR]LF[dK][dK]LL[dK]YL[dR][dK]F-NH2)
**Result** 61.2

----------
I'd appreciate it if you could supply remaining at 24 h, 0.5 mg/mL values for the items below.
# System: proteases secreted by S. aureus ATCC 25923
# experimental.protocol: in vitro
# condition.set: Staphylococcus aureus, S. aureus ATCC 25923 culture supernatant, pH 8
Where no end group is shown, it is not given here.
Answer with a number only, understood to be in %.

**Query** Query: remaining at 24 h, 0.5 mg/mL; subject: RRIFKRLFKYLRRF-NH2 [LP02]
**Result** 19.7

**Query** Query: remaining at 24 h, 0.5 mg/mL; subject: KRLFKKLLKYLRKF-NH2 [Pep05]
**Result** 22.2

**Query** Query: remaining at 24 h, 0.5 mg/mL; subject: KRLFKRLFKYLRRF-NH2 [LP01]
**Result** 33.3

----------
# Tested on: proteases secreted by A. baumannii ATCC 19606
# experimental.protocol: in vitro
# condition.set: A. baumannii ATCC 19606 culture supernatant, pH 8
Where a SMILES comes first, the peptide text is derived from it. [ ]: non-standard residue; d: D form. hArg = N=C(N)NCCCC[C@H](N)C(=O)O; Dab = NCC[C@H](N)C(=O)O; Dap = NC[C@H](N)C(=O)O
quantity.kind: remaining at 24 h, 0.5 mg/mL (%)
Answer with a number only, understood to be in %.

**Query** Query: remaining at 24 h, 0.5 mg/mL; subject: CC(C)C[C@H](NC(=O)[C@H](Cc1ccc(O)cc1)NC(=O)[C@H](CCN)NC(=O)[C@H](CC(C)C)NC(=O)[C@H](CC(C)C)NC(=O)[C@H](CN)NC(=O)[C@H](CN)NC(=O)[C@H](Cc1ccccc1)NC(=O)[C@H](CC(C)C)NC(=O)[C@H](CCCCNC(=N)N)NC(=O)[C@@H](N)CN)C(=O)N[C@@H](CCCCNC(=N)N)C(=O)N[C@@H](CCN)C(=O)N[C@@H](Cc1ccccc1)C(N)=O [UP14] (H-[Dap][hArg]LF[Dap][Dap]LL[Dab]YL[hArg][Dab]F-NH2)
**Result** 12.9

----------
# System: A. baumannii ATCC 19606
# Assay type: cell-based, Acinetobacter baumannii
# condition.set: ATCC 19606, 20 h
Where a SMILES comes first, the peptide text is derived from it. [ ]: non-standard residue; d: D form. hArg = N=C(N)NCCCC[C@H](N)C(=O)O; Dab = NCC[C@H](N)C(=O)O
I'd appreciate it if you could supply MIC values for the items below.
Answer with a number only, understood to be in µg/mL.

**Query** Given the entry CC(C)C[C@H](NC(=O)[C@H](Cc1ccc(O)cc1)NC(=O)[C@H](CCN)NC(=O)[C@H](CC(C)C)NC(=O)[C@H](CC(C)C)NC(=O)[C@H](CCN)NC(=O)[C@H](CCN)NC(=O)[C@H](Cc1ccccc1)NC(=O)[C@H](CC(C)C)NC(=O)[C@H](CCCCNC(=N)N)NC(=O)[C@@H](N)CCN)C(=O)N[C@@H](CCCCNC(=N)N)C(=O)N[C@@H](CCN)C(=O)N[C@@H](Cc1ccccc1)C(N)=O [UP13] (H-[Dab][hArg]LF[Dab][Dab]LL[Dab]YL[hArg][Dab]F-NH2) , what MIC was observed with A. baumannii ATCC 19606?
**Result** 2

**Query** Given the entry CC(C)C[C@H](NC(=O)[C@H](Cc1ccc(O)cc1)NC(=O)[C@H](CCCCN)NC(=O)[C@H](CC(C)C)NC(=O)[C@H](CC(C)C)NC(=O)[C@@H](CCCCN)NC(=O)[C@@H](CCCCN)NC(=O)[C@H](Cc1ccccc1)NC(=O)[C@H](CC(C)C)NC(=O)[C@H](CCCNC(=N)N)NC(=O)[C@@H](N)CCCCN)C(=O)N[C@@H](CCCNC(=N)N)C(=O)N[C@H](CCCCN)C(=O)N[C@@H](Cc1ccccc1)C(N)=O [DP04] (H-KRLF[dK][dK]LLKYLR[dK]F-NH2) , what MIC was observed with A. baumannii ATCC 19606?
**Result** 2

----------
# System: carbapenem-resistant A. baumannii (CRAB) SIPI-025
# Format: cell-based, Acinetobacter baumannii
# condition.set: carbapenem-resistant (CRAB) SIPI-025, 20 h
Where a SMILES comes first, the peptide text is derived from it. [ ]: non-standard residue; d: D form. hArg = N=C(N)NCCCC[C@H](N)C(=O)O; 2Thi = N[C@@H](Cc1cccs1)C(=O)O; Dab = NCC[C@H](N)C(=O)O; Dap = NC[C@H](N)C(=O)O; Aib = CC(C)(N)C(=O)O
I'd appreciate it if you could supply MIC values for the items below.
Answer with a number only, understood to be in µg/mL.

**Query** Query: MIC; subject: CC(C)C[C@H](NC(=O)[C@H](Cc1ccc(O)cc1)NC(=O)[C@H](CCCCN)NC(=O)[C@H](CC(C)C)NC(=O)[C@H](CC(C)C)NC(=O)[C@H](CCCCN)NC(=O)[C@H](CCCCN)NC(=O)[C@H](Cc1ccccc1)NC(=O)[C@H](CC(C)C)NC(=O)[C@H](CCCNC(=N)N)NC(=O)[C@@H](N)CCCCNC(=N)N)C(=O)N[C@@H](CCCNC(=N)N)C(=O)N[C@@H](CCCCN)C(=O)N[C@@H](Cc1cccs1)C(N)=O [UP10] (H-[hArg]RLFKKLLKYLRK[2Thi]-NH2)
**Result** 2

**Query** Query: MIC; subject: CC(C)C[C@H](NC(=O)[C@H](CCCCN)NC(=O)[C@H](CCCCN)NC(=O)[C@H](Cc1ccccc1)NC(=O)[C@H](CC(C)C)NC(=O)[C@H](CCCNC(=N)N)NC(=O)[C@@H](N)CCCCN)C(=O)N[C@@H](CC(C)C)C(=O)N[C@@H](CCCCN)C(=O)N[C@@H](Cc1ccc(O)cc1)C(=O)N[C@@H](CC(C)C)C(=O)N[C@@H](CCCNC(=N)N)C(=O)N[C@H](CCCCN)C(=O)N[C@@H](Cc1ccccc1)C(N)=O [DP03] (H-KRLFKKLLKYLR[dK]F-NH2)
**Result** 2

**Query** Query: MIC; subject: CC(C)C[C@H](NC(=O)[C@H](Cc1ccc(O)cc1)NC(=O)[C@H](CCCCN)NC(=O)[C@H](CC(C)C)NC(=O)[C@H](CC(C)C)NC(=O)[C@@H](CCCCN)NC(=O)[C@@H](CCCCN)NC(=O)[C@H](Cc1ccccc1)NC(=O)[C@H](CC(C)C)NC(=O)[C@@H](CCCNC(=N)N)NC(=O)[C@H](N)CCCCN)C(=O)N[C@@H](CCCNC(=N)N)C(=O)N[C@H](CCCCN)C(=O)N[C@@H](Cc1ccccc1)C(N)=O [DP05] (H-[dK][dR]LF[dK][dK]LLKYLR[dK]F-NH2)
**Result** 2

**Query** Query: MIC; subject: CC(C)C[C@H](NC(=O)[C@H](Cc1ccc(O)cc1)NC(=O)[C@H](CCCCN)NC(=O)[C@H](CC(C)C)NC(=O)[C@H](CC(C)C)NC(=O)[C@H](CCCCN)NC(=O)[C@H](CCCCN)NC(=O)[C@H](Cc1ccccc1)NC(=O)[C@H](CC(C)C)NC(=O)[C@H](CCCNC(=N)N)NC(=O)[C@@H](N)CCCCN)C(=O)N[C@@H](CCCNC(=N)N)C(=O)N[C@@H](CCCCN)C(=O)N[C@@H](Cc1cccs1)C(N)=O [UP08] (H-KRLFKKLLKYLRK[2Thi]-NH2)
**Result** 2

**Query** Query: MIC; subject: CC(C)C[C@H](NC(=O)[C@H](Cc1ccc(O)cc1)NC(=O)[C@H](CCN)NC(=O)[C@H](CC(C)C)NC(=O)[C@H](CC(C)C)NC(=O)[C@H](CN)NC(=O)[C@H](CN)NC(=O)[C@H](Cc1ccccc1)NC(=O)[C@H](CC(C)C)NC(=O)[C@H](CCCCNC(=N)N)NC(=O)[C@@H](N)CN)C(=O)N[C@@H](CCCCNC(=N)N)C(=O)N[C@@H](CCN)C(=O)N[C@@H](Cc1cccs1)C(N)=O [UP11] (H-[Dap][hArg]LF[Dap][Dap]LL[Dab]YL[hArg][Dab][2Thi]-NH2)
**Result** 2

**Query** Query: MIC; subject: CC(C)C[C@H](NC(=O)[C@H](CC(C)C)NC(=O)[C@@H](CCCCN)NC(=O)[C@@H](CCCCN)NC(=O)[C@H](Cc1ccccc1)NC(=O)[C@H](CC(C)C)NC(=O)[C@@H](CCCNC(=N)N)NC(=O)[C@H](N)CCCCN)C(=O)N[C@H](CCCCN)C(=O)N[C@@H](Cc1ccc(O)cc1)C(=O)N[C@@H](CC(C)C)C(=O)N[C@H](CCCNC(=N)N)C(=O)N[C@H](CCCCN)C(=O)N[C@@H](Cc1ccccc1)C(N)=O [DP06] (H-[dK][dR]LF[dK][dK]LL[dK]YL[dR][dK]F-NH2)
**Result** 2

**Query** Query: MIC; subject: CC(C)C[C@H](NC(=O)[C@H](Cc1ccc(O)cc1)NC(=O)[C@H](CCN)NC(=O)[C@H](CC(C)C)NC(=O)[C@H](CC(C)C)NC(=O)[C@H](CCN)NC(=O)[C@H](CCN)NC(=O)[C@H](Cc1ccccc1)NC(=O)[C@H](CC(C)C)NC(=O)[C@H](CCCCNC(=N)N)NC(=O)[C@@H](N)CCN)C(=O)N[C@@H](CCCCNC(=N)N)C(=O)N[C@@H](CCN)C(=O)N[C@@H](Cc1ccccc1)C(N)=O [UP13] (H-[Dab][hArg]LF[Dab][Dab]LL[Dab]YL[hArg][Dab]F-NH2)
**Result** 2

**Query** Query: MIC; subject: CC(C)C[C@H](NC(=O)[C@H](Cc1ccc(O)cc1)NC(=O)[C@H](CCN)NC(=O)[C@H](CC(C)C)NC(=O)[C@H](CC(C)C)NC(=O)[C@H](CCN)NC(=O)[C@H](CCN)NC(=O)[C@H](Cc1ccccc1)NC(=O)[C@H](CC(C)C)NC(=O)[C@H](CCCCNC(=N)N)NC(=O)[C@@H](N)CCN)C(=O)N[C@@H](CCCNC(=N)N)C(=O)N[C@@H](CCN)C(=O)N[C@@H](Cc1ccccc1)C(N)=O [UP12] (H-[Dab][hArg]LF[Dab][Dab]LL[Dab]YLR[Dab]F-NH2)
**Result** 4

**Query** Query: MIC; subject: CC(C)C[C@H](NC(=O)[C@H](Cc1ccc(O)cc1)NC(=O)[C@H](CCCCN)NC(=O)[C@H](CC(C)C)NC(=O)[C@H](CC(C)C)NC(=O)[C@H](CCCCN)NC(=O)[C@H](CCCCN)NC(=O)[C@H](Cc1ccccc1)NC(=O)[C@H](CC(C)C)NC(=O)[C@H](CCCNC(=N)N)NC(=O)C(C)(C)N)C(=O)N[C@@H](CCCNC(=N)N)C(=O)N[C@@H](CCCCN)C(=O)N[C@@H](Cc1cccs1)C(N)=O [UP09] (H-[Aib]RLFKKLLKYLRK[2Thi]-NH2; N-terminus assumed)
**Result** 2

**Query** Query: MIC; subject: CC(C)C[C@H](NC(=O)[C@H](Cc1ccc(O)cc1)NC(=O)[C@H](CCN)NC(=O)[C@H](CC(C)C)NC(=O)[C@H](CC(C)C)NC(=O)[C@H](CN)NC(=O)[C@H](CN)NC(=O)[C@H](Cc1ccccc1)NC(=O)[C@H](CC(C)C)NC(=O)[C@H](CCCCNC(=N)N)NC(=O)[C@@H](N)CN)C(=O)N[C@@H](CCCCNC(=N)N)C(=O)N[C@@H](CCN)C(=O)N[C@@H](Cc1ccccc1)C(N)=O [UP14] (H-[Dap][hArg]LF[Dap][Dap]LL[Dab]YL[hArg][Dab]F-NH2)
**Result** 4
